- protocol summary: Drug metabolism in human intestine microsomes assessed as 17-epiestriol-17-glucuronide formation after 15 to 60 mins by Michaelis-Menten equation analysis in presence of UDPGA
- Format: ADME
observed property: Km (µM)
Kindly answer with a numeric value in µM, unit omitted.

Problem: Sample C[C@]12CC[C@@H]3c4ccc(O)cc4CC[C@H]3[C@@H]1C[C@@H](O)[C@H]2O — what was its Km?
Result: 1.3

###

- study target: UniProtKB P16662
- Sequence (P16662 whole entry): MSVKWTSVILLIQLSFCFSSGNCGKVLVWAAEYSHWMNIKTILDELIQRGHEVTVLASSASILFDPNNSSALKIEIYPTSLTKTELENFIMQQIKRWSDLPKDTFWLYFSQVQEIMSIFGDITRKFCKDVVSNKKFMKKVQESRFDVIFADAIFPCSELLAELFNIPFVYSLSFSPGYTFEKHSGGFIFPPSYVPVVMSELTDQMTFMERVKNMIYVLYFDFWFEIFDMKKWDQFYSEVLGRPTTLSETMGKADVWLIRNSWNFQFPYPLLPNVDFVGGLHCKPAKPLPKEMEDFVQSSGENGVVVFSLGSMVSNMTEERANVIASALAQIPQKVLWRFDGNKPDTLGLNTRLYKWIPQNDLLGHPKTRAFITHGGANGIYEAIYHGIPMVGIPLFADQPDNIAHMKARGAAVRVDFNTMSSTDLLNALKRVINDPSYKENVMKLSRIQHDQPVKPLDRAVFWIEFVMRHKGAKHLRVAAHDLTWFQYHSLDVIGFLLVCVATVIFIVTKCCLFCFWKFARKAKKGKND
- protocol summary: Inhibition of recombinant human C-terminal His-tagged UGT2B7 after 15 to 60 mins by Michaelis-Menten equation analysis in presence of UDPGA
observed property: Ki (µM)
// return numeric value only (unit: µM, not printed)

Problem: Which Ki value belongs to C[C@]12CC[C@@H]3c4ccc(O)cc4CC[C@H]3[C@@H]1C[C@H](O)[C@@H]2O [EPIESTRIOL] ?
Result: 162

###

- protocol summary: Drug metabolism in human intestine microsomes assessed as 16-epiestriol-3-glucuronide formation after 15 to 60 mins by Michaelis-Menten equation analysis in presence of UDPGA
- Assay type: ADME
observed property: Km (µM)
Numbers only here, please. The scale is µM.

Problem: Look up Km: C[C@]12CC[C@@H]3c4ccc(O)cc4CC[C@H]3[C@@H]1C[C@H](O)[C@@H]2O [EPIESTRIOL]
Result: 50

###

- protocol summary: Drug metabolism in human intestine microsomes assessed as 17-epiestriol-3-glucuronide formation after 15 to 60 mins by Michaelis-Menten equation analysis in presence of UDPGA
- Format: ADME
observed property: Km (µM)
Please reply with the bare figure in µM and do not write the unit itself.

Problem: Which Km is listed for C[C@]12CC[C@@H]3c4ccc(O)cc4CC[C@H]3[C@@H]1C[C@@H](O)[C@H]2O ?
Result: 251

###

- Tested on: Liver microsome
- protocol summary: Drug metabolism in human liver microsomes assessed as estriol-3-glucuronide formation after 15 to 60 mins by Michaelis-Menten equation analysis in presence of UDPGA
- Type: ADME
observed property: Km (µM)
# number only, unit µM dropped from output

Problem: Tell me the measured Km of C[C@]12CC[C@@H]3c4ccc(O)cc4CC[C@H]3[C@@H]1C[C@@H](O)[C@@H]2O [ESTRIOL] , please.
Result: 313

###

- study target: UDP-glucuronosyltransferase 1A10 (Homo sapiens, UniProt Q9HAW8)
- Sequence (Q9HAW8 whole entry): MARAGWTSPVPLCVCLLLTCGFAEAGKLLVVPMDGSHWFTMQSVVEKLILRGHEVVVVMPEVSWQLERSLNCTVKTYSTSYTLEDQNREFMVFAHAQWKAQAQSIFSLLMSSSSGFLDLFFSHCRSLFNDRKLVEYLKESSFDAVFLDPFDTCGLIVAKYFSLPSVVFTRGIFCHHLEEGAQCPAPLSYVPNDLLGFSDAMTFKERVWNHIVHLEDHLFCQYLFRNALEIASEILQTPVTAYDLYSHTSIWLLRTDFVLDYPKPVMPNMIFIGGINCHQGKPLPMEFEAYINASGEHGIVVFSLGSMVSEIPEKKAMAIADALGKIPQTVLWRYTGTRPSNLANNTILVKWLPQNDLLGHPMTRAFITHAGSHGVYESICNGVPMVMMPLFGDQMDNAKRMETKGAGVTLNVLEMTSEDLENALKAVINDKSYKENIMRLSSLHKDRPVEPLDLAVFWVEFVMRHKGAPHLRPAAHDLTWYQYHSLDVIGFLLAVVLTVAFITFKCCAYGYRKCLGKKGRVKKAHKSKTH
- protocol summary: Inhibition of recombinant human C-terminal His-tagged UGT1A10 after 15 to 60 mins by Michaelis-Menten equation analysis in presence of UDPGA
observed property: Ki (µM)
Answer in µM, number only, no unit symbol.

Problem: I'd like to know its Ki. The molecule in question is C[C@]12CC[C@@H]3c4ccc(O)cc4CC[C@H]3[C@@H]1C[C@H](O)[C@@H]2O [EPIESTRIOL]
Result: 98.1
